Would you kindly list MIC K. pneumoniae ATCC 4352 for each of these molecules?
- Tested on: Klebsiella pneumoniae
- Type: cell-based
Numbered stars: 1 amine (or outer) side, 2 acyl side, 3 side chain; on linkers, the order of the positions; unused ones are H or OH. Bridge positions count the residues as written; N and C are the ends. Square brackets hold non-standard residues; d marks the D form. Peptide text beside a SMILES is read from it. * marks the point of attachment. ξ: configuration not given here. X12 = O=C([C@@H](Cc1ccc(C2CCCCC2)cc1)N[*:1])[*:2]; dBip = N[C@H](Cc1ccc(-c2ccccc2)cc1)C(=O)O; X10 = NC[C@H](OCc1ccc(Cl)cc1)C(=O)*; X3 = CCCCCCCCN1CCNC[C@H]1C(=O)*; dCha = N[C@H](CC1CCCCC1)C(=O)O; Thr(3ξ) = CC(O)[C@H](N)C(=O)O; Dab = NCC[C@H](N)C(=O)O; Dap = NC[C@H](N)C(=O)O; X2 = CC(C)CC(CN)C(=O)*
Kindly provide the numeric value in µg/mL only, without the unit symbol.

Entry CC(C)CC(CN)C(=O)N[C@H](C(=O)N[C@@H](CN)C(=O)N[C@H]1CCNC(=O)[C@H]([C@@H](C)O)NC(=O)[C@H](CCN)NC(=O)[C@H](CCN)NC(=O)[C@H](CC(C)C)NC(=O)[C@@H](Cc2ccc(C3CCCCC3)cc2)NC(=O)[C@H](CCN)NC1=O)C(C)O (stereo partly drawn) [Example 27] (X2-[Thr(3ξ)][Dap][Dab][Dab][X12]L[Dab][Dab]T; lactam 3-C) ; MIC K. pneumoniae ATCC 4352 = 0.25

The molecule identified as CC(C)C[C@@H]1NC(=O)[C@@H](CC2CCCCC2)NC(=O)[C@H](CCN)NC(=O)[C@@H](NC(=O)[C@H](CN)NC(=O)[C@@H](NC(=O)[C@H](CN)OCc2ccc(Cl)cc2)[C@@H](C)O)CCNC(=O)[C@H]([C@@H](C)O)NC(=O)[C@H](CCN)NC(=O)[C@H](CCN)NC1=O [Example 81] (X10-T[Dap][Dab][Dab][dCha]L[Dab][Dab]T; lactam 3-C) registered its MIC K. pneumoniae ATCC 4352 at 0.25

// MIC K. pneumoniae ATCC 4352 lookup, molecule = CCCCCCCCN1CCNC[C@H]1C(=O)N[C@H](C(=O)N[C@@H](CN)C(=O)N[C@H]1CCNC(=O)[C@H]([C@@H](C)O)NC(=O)[C@H](CCN)NC(=O)[C@H](CCN)NC(=O)[C@H](CC(C)C)NC(=O)[C@@H](Cc2ccc(-c3ccccc3)cc2)NC(=O)[C@H](CCN)NC1=O)C(C)O (stereo partly drawn) [Example 30] (X3-[Thr(3ξ)][Dap][Dab][Dab][dBip]L[Dab][Dab]T; lactam 3-C) , result: 1

The reported measurements were obtained from patent US12146004B2.
